test: Cmax in mouse at 1 mg/kg, po; format: ADME, organism-based; set-up: dose 1 mg/kg, route oral; conditions: in vivo
measurement-name: Cmax (ng/mL)
Numbers only, in ng/mL.

I am curious: what Cmax value has been reported for `CCNC(=O)c1cc2c(-c3cc(C(C)(C)O)ccc3Oc3c(C)cc(F)cc3C)cn(C)c(=O)c2[nH]1` ?
210

* * *

assay: AUC in monkey at 0.1 mg/kg, iv; type: ADME, organism-based, Macaca mulatta; settings: rhesus monkey, in vivo
measurement-name: AUC (ng·h/mL)
Numbers only, in ng·h/mL.

I am curious: what AUC value has been reported for `CCNC(=O)c1cc2c(-c3cc(S(=O)(=O)CC)ccc3Oc3c(C)cccc3C)cn(C)c(=O)c2[nH]1` ?
89

* * *

assay: Half life in mouse at 1 mg/kg, iv; format: ADME, organism-based; conditions: in vivo
Would you kindly list half-life for each of these compounds?

I am curious: what half-life value has been reported for `CCNC(=O)c1cc2c(-c3cc(C(C)(C)O)ccc3Oc3c(C)cc(F)cc3C)cn(C)c(=O)c2[nH]1` ?
3 h

Next, consider the following compound.
I am curious: what half-life value has been reported for `CCNC(=O)c1cc2c(-c3cc(S(=O)(=O)CC)ccc3Oc3c(C)cccc3C)cn(C)c(=O)c2[nH]1` ?
1 h

* * *

assay: Cmax in rat at 1 mg/kg, po; type: ADME, organism-based; design: dose 1 mg/kg, route oral; conditions: in vivo
measurement-name: Cmax (µg/mL)
Give bare numbers, in µg/mL.

I am curious: what Cmax value has been reported for `CCNC(=O)c1cc2c(-c3cc(C(C)(C)O)ccc3Oc3c(C)cc(F)cc3C)cn(C)c(=O)c2[nH]1` ?
0.012

* * *

target: Bromodomain-containing protein 4 (Homo sapiens, UniProt O60885); assay: biochemical; format: cell-based
Description: Inhibition of human N-terminal His6 tagged BRD4 BD1 (57 to 168) residues expressed in Escherichia coli BL21(DE3) cells after 1 hr by TR-FRET assay
Would you kindly list Ki for each of these molecules?
Give bare numbers, in nM.

I am curious: what Ki value has been reported for `CCNC(=O)c1cc2c(-c3cc(S(=O)(=O)CC)ccc3Oc3ccccc3Cl)cn(C)c(=O)c2[nH]1` ?
6.5

I am curious: what Ki value has been reported for `CCNC(=O)c1cc2c(-c3cc(S(C)(=O)=O)ccc3Nc3c(C)cccc3C)cn(C)c(=O)c2[nH]1` ?
250

Hello, I would appreciate it if you could give Ki for each entry below.
1. CCNC(=O)c1cc2c(-c3ccccc3Cc3c(C)cccc3C)cn(C)c(=O)c2[nH]1
2. CCNC(=O)c1cc2c(-c3cc(S(=O)(=O)CC)ccc3-c3cccc4cc[nH]c34)cn(C)c(=O)c2[nH]1
3. CCNC(=O)c1cc2c(-c3cc(S(N)(=O)=O)ccc3Oc3c(C)cccc3C)cn(C)c(=O)c2[nH]1
4. CCNC(=O)c1cc2c(-c3cc(S(=O)(=O)CC)ccc3-c3ccccc3C)cn(C)c(=O)c2[nH]1
5. Cn1cc(-c2cc(S(C)(=O)=O)ccc2Oc2ccc(F)cc2F)c2cc(C(N)=O)[nH]c2c1=O
6. CCNC(=O)c1cc2c(-c3cc(NC(=O)OC)ccc3Oc3c(C)cc(F)cc3C)cn(C)c(=O)c2[nH]1
7. CCNC(=O)c1cc2c(-c3cc(S(=O)(=O)CC)ccc3Oc3c(C)cccc3C#N)cn(C)c(=O)c2[nH]1
8. CCNC(=O)c1cc2c(-c3cc(S(=O)(=O)CC)ccc3Oc3ccc(F)cc3F)cn(C)c(=O)c2[nH]1

2100
170
66
180
8.6
290
69
6.6

Hello, I would appreciate it if you could give Ki for each entry below.
1. CCNC(=O)c1cc2c(-c3cc(S(=O)(=O)CC)ccc3Oc3c(C)cc(F)cc3C)cn(C)c(=O)c2[nH]1
2. Cc1cc(F)cc(C)c1Oc1ccc(C(C)(C)O)cc1-c1cn(C)c(=O)c2[nH]c(C(=O)NC(C)(C)C)cc12
3. Cc1cc(F)cc(C)c1Oc1ccc(C(C)(C)O)cc1-c1cn(C)c(=O)c2[nH]c(C(=O)NC34CC(C3)C4)cc12
4. CCNC(=O)c1cc2c(-c3cc(C(=O)O)ccc3Oc3c(C)cccc3C)cn(C)c(=O)c2[nH]1

1. 79
2. 310
3. 440
4. 300
